Tested on: HCC78
measurement.description: cells
recorded.conditions: Homo sapiens, HCC78, 72 h
Description: Antiproliferative activity against ROS1-addicted human HCC78 cells assessed as reduction in cell viability incubated for 72 hrs by MTT assay
pIC50: −log10 of the molar value.
measured.parameter: pIC50

{"molecule.smiles": "CN1CCC(n2cc(Nc3cc(N4CCC[C@H](C(=O)NCc5ccc(C#N)cc5)C4)ccn3)cn2)CC1", "pIC50": 4.06}

a. Cc1nn(C)cc1Nc1cc(N2CCC[C@@H](C(=O)NCc3ccc(OC(F)(F)F)cc3)C2)ccn1
b. COc1cc(Nc2cc(N3CCC[C@H](C(=O)NCc4ccc(C)cc4)C3)ccn2)cc(OC)c1OC
**Query** Decide: a or b , by lowest recorded pIC50. Kindly give the label for the entry you pick.
**Result** a
(a: 4.09, b: 4.61)

----------
Proto-oncogene tyrosine-protein kinase ROS (Homo sapiens, UniProt P08922) measurements of pIC50, listed per entry.
Sequence (P08922 whole entry): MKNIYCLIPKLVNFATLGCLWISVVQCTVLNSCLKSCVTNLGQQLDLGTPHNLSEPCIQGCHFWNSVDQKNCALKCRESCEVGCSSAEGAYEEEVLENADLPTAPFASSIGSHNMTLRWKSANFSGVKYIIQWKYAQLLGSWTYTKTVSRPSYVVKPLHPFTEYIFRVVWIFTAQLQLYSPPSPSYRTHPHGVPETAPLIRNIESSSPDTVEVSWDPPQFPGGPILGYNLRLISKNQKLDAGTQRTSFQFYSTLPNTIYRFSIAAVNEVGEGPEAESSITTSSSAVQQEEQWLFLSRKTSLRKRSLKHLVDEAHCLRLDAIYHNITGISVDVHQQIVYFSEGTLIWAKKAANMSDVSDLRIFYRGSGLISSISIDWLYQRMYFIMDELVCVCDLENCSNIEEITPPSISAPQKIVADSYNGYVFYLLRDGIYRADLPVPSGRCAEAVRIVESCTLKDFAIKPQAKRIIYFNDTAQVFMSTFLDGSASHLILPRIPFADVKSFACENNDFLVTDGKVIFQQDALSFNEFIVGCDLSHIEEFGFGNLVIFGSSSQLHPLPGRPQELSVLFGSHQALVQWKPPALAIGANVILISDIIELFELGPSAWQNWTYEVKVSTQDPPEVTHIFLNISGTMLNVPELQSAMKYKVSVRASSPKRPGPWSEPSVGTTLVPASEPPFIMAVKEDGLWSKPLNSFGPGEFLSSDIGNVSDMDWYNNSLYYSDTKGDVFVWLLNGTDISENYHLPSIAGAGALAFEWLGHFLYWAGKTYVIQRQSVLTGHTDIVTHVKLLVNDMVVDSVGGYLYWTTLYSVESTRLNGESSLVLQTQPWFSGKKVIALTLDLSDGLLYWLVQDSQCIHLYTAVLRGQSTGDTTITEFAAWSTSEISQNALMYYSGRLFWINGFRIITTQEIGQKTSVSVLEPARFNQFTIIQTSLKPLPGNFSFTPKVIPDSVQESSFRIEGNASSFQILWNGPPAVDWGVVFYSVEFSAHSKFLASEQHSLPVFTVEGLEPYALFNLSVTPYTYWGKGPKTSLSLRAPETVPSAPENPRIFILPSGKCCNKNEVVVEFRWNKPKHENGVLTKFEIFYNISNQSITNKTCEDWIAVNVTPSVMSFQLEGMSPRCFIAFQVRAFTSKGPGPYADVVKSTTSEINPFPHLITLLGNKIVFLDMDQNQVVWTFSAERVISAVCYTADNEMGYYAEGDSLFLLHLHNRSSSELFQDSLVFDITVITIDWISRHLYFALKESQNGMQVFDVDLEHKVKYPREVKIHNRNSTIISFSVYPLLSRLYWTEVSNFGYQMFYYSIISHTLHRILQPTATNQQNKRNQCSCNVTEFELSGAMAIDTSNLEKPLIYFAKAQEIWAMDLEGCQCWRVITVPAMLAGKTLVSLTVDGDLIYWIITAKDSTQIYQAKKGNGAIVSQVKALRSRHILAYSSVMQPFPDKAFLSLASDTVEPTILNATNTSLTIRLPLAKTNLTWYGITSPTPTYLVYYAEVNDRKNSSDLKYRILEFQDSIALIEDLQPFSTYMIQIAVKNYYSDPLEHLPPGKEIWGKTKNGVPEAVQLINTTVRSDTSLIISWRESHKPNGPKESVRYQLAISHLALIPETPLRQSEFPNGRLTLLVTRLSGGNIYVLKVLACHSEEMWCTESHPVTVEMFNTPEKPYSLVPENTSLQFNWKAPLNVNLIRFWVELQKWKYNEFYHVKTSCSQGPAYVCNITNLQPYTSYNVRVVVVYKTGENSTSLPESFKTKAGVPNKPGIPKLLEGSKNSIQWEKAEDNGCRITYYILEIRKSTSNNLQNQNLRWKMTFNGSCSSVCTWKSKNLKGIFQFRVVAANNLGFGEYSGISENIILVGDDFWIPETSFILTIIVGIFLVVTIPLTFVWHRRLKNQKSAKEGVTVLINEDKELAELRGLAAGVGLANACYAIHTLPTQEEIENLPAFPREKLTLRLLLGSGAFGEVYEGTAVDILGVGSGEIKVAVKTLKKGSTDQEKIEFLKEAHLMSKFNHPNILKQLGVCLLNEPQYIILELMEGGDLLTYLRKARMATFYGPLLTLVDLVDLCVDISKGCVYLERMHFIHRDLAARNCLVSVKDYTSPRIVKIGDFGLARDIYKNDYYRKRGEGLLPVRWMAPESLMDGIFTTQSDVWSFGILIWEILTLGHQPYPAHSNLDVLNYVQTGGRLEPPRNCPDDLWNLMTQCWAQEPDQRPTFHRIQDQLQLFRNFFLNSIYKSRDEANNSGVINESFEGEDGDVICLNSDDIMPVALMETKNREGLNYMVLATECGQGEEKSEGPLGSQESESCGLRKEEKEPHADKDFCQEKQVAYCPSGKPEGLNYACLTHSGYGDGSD
pIC50: −log10 of the molar value.
measured.parameter: pIC50

Worked examples follow.
{"molecule.smiles": "COc1cc(N2CCN(C)CC2)ccc1Nc1cc(N2CCC[C@H](C(=O)NCc3ccc(OC(F)(F)F)cc3)C2)ccn1", "pIC50": 5.97}
{"molecule.smiles": "COc1cc(N2CCC(N3CCN(C)CC3)CC2)ccc1Nc1cc(N2CCC[C@H](C(=O)NCc3ccc(OC(F)(F)F)cc3)C2)ccn1", "pIC50": 5.65}

P. COc1cc(N2CCNCC2)ccc1Nc1cc(N2CCC[C@H](C(=O)NCc3ccc(OC(F)(F)F)cc3)C2)ccn1
Q. COc1cc(N2CCC(N3CCOCC3)CC2)ccc1Nc1cc(N2CCC[C@H](C(=O)NCc3ccc(OC(F)(F)F)cc3)C2)ccn1
**Query** Decide: P or Q , by lowest recorded pIC50. Kindly give the label for the entry you pick.
**Result** Q
(Q: 5.47, P: 6.28)

----------
pIC50: −log10 of the molar value.
UniProt:P08922 measurements of pIC50, listed per entry.
measured.parameter: pIC50

{"molecule.smiles": "COc1cc(Nc2cc(N3CCC[C@H](C(=O)NCc4ccc(C)cc4)C3)ccn2)cc(OC)c1OC", "assay.system": "UniProt:P08922", "value.measured": 4.92}
{"molecule.smiles": "Cc1nn(C)cc1Nc1cc(N2CCC[C@H](C(=O)NCc3ccc(OC(F)(F)F)cc3)C2)ccn1", "assay.system": "UniProt:P08922", "value.measured": 5.90}

I. COc1cc(N2CCNCC2)ccc1Nc1cc(N2CCC[C@@H](C(=O)NCc3ccc(OC(F)(F)F)cc3)C2)ccn1
II. Cc1nn(C)cc1Nc1cc(N2CCC[C@@H](C(=O)NCc3ccc(OC(F)(F)F)cc3)C2)ccn1
**Query** I or II : whose pIC50 is greater? Kindly give the label for the entry you pick.
**Result** I

----------
assay.system: ALK tyrosine kinase receptor (Homo sapiens)
measured.parameter: IC50 (nM)
Quick note: give the figure in nM, leave out the unit.

Tested on ALK tyrosine kinase receptor (Homo sapiens): COc1cc(N2CCNCC2)ccc1Nc1cc(N2CCC[C@H](C(=O)NCc3ccc(OC(F)(F)F)cc3)C2)ccn1 . Observed IC50: 174

----------
assay.system: ALK tyrosine kinase receptor (Homo sapiens, UniProt Q9UM73, L1196M)
Sequence (Q9UM73 19-1620 L1196M limits assumed): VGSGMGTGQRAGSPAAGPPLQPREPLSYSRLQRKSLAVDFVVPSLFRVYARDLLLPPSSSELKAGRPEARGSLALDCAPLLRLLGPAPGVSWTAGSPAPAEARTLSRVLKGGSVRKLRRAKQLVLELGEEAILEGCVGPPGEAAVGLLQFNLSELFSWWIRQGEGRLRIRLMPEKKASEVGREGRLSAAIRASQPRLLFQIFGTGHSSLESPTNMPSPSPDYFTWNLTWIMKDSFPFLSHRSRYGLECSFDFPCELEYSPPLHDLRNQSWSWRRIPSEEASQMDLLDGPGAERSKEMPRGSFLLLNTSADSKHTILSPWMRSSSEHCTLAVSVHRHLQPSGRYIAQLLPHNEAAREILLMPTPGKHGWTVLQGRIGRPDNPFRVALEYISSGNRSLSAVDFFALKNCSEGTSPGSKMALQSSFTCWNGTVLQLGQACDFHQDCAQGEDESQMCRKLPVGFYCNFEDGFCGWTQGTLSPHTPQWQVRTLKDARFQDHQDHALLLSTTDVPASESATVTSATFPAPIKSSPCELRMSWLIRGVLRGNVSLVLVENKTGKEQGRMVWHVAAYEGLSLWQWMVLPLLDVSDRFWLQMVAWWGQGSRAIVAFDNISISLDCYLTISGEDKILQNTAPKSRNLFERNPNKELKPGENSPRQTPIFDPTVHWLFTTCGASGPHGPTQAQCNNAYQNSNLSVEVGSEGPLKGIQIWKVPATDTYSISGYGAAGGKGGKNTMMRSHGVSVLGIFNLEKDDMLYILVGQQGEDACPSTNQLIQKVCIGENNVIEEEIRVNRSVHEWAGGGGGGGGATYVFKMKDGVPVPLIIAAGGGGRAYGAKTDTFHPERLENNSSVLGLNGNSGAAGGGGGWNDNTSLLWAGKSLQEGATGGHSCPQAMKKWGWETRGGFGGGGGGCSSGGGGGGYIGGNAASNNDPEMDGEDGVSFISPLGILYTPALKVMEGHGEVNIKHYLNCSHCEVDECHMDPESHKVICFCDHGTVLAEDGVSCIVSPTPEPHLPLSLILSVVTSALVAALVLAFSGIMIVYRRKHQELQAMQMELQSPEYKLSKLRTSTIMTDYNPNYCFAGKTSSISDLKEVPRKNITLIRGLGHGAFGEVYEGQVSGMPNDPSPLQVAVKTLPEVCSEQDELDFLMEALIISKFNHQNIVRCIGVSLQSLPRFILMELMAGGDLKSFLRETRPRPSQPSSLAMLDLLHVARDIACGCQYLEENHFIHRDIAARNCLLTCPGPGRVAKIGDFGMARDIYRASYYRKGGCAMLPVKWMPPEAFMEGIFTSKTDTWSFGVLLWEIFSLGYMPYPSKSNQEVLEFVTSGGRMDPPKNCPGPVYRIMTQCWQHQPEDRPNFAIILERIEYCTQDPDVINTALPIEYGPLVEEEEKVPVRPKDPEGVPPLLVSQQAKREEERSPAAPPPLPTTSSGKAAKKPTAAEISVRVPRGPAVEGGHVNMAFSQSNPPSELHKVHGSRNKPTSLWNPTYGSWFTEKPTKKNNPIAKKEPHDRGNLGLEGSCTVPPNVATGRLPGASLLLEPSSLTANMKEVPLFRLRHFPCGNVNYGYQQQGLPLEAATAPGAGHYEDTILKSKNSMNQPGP
measured.parameter: pIC50
Keep it numeric: pIC50 is minus log10 of the concentration in mol/L.

Lab note: measured pIC50 of COc1cc(N2CCNCC2)ccc1Nc1cc(N2CCC[C@H](C(=O)NCc3ccc(OC(F)(F)F)cc3)C2)ccn1 was 7.38

src = ChEMBL document CHEMBL4351011
